- tgt: rat maltase (partially purified alpha-glucosidase from intestinal rat powder)
- protocol.notes: Intestinal alpha-glucosidase assay, maltose substrate (Glucose GO Kit)
Criterion: IC50 strictly under 300 nM. Met: true (1). Not met: false (0).

{"molecule": "O=[N+]([O-])c1cc(-c2ccc[nH]2)ccc1NCc1cccc(CN2C[C@H](O)[C@@H](O)[C@H](O)[C@H]2CO)c1", "classification": "true (1)"}
{"molecule": "[N-]=[N+]=Nc1ccc(NCCc2ccccc2CCN2C[C@H](O)[C@@H](O)[C@H](O)[C@H]2CO)c([N+](=O)[O-])c1", "classification": "false (0)"}
{"molecule": "OC[C@@H]1[C@@H](O)[C@H](O)[C@@H](O)CN1CCc1ccc(CCNc2cc(Cl)cc(C3=COCCO3)c2)cc1", "classification": "true (1)"}
{"molecule": "N#Cc1cc(NCc2cccc(CN3C[C@H](O)[C@@H](O)[C@H](O)[C@H]3CO)c2)cc(-c2ncccn2)c1", "classification": "true (1)"}
{"molecule": "OC[C@@H]1[C@@H](O)[C@H](O)[C@@H](O)CN1CCCCCCNc1cc(Cl)cc(-c2ncccn2)c1", "classification": "true (1)"}

# next molecule below
Ask: Strictly below 300 nM in IC50? [N-]=[N+]=Nc1ccc(NCCc2ccc(CCN3C[C@@H](O)[C@H](O)[C@@H](O)[C@@H]3CO)c3ccccc23)c([N+](=O)[O-])c1 (stereo in doubt)
Result: false (0)

The reported numbers originate from patent US20250197372A1.
